# System: astro (control astrocytes)
# experimental protocol: Drug repurposing screens with cells derived from glioblastoma tumor samples (AID 1345199); also: nearly all actives have a fitted effect of over 40% in size
# condition set: viability, ATP luminescence, 48 h; series mostly up to 45.9 µM
Records with an inconclusive call do not appear. Activity calls are given as the source filed them. Calls follow the shape of the dose curve; as a rule, active = well fitted inhibition curve with a large enough effect; inconclusive = small, poorly fitted or top-dose-only effect; inactive = flat fitted curve, though single readings scatter.
Classes used: active, inactive

INSERT INTO results (compound, target_under_test, cat) VALUES
  ('Oc1ccc(Cl)cc1Cc1cc(Cl)ccc1O', 'astro', 'active'),
  ('O=C1c2cccc3c2[C@H](CCC3)CN1[C@@H]1CN2CCC1CC2', 'astro', 'inactive'),
  ('CN1CCC(OC(c2ccccc2)c2ccccc2)CC1', 'astro', 'inactive'),
  ('FC1(F)C(F)(F)C(F)(F)C2(F)C(F)(F)C(F)(F)C(F)(F)C(F)(F)C2(F)C1(F)F (centres undefined)', 'astro', 'inactive'),
  ('CCN(CC)CCNC(=O)c1cc(Br)c(N)cc1OC', 'astro', 'inactive'),
  ('O=C(Nc1ccc([N+](=O)[O-])cc1)Nc1ccc([N+](=O)[O-])cc1', 'astro', 'inactive'),
  ('OCCOCCN1CCN(C2=Nc3ccccc3Sc3ccccc32)CC1', 'astro', 'inactive'),
  ('CCN(CC)CCOC(=O)C1(c2ccccc2)CCCC1', 'astro', 'inactive'),
  ('CC(=O)NCCCCCC(=O)O', 'astro', 'inactive'),
  ('COc1cc(C(=S)N2CCOCC2)ccc1O', 'astro', 'inactive'),
  ('CCOC(=O)c1c(N)sc2c1CCN(Cc1ccccc1)C2', 'astro', 'inactive'),
  ('C/C=C/C=N/NC(=O)c1ccncc1', 'astro', 'inactive'),
  ('O=C(N/N=C/c1ccc([N+](=O)[O-])o1)c1ccc(O)cc1', 'astro', 'inactive'),
  ('NC(=O)C1(N2CCCCC2)CCN(CCCC(=O)c2ccc(F)cc2)CC1', 'astro', 'inactive'),
  ('NS(=O)(=O)c1cc2c(cc1Cl)NC(CC1CCCC1)NS2(=O)=O (centres undefined)', 'astro', 'inactive'),
  ('CC1(C)OC[C@@H]2O[C@@]3(C(=O)O)OC(C)(C)O[C@H]3[C@@H]2O1', 'astro', 'inactive'),
  ('Cc1ccc(S(=O)(=O)NC(=O)NC2CCCC2)cc1', 'astro', 'inactive'),
  ('FC(F)(F)C(F)(F)C(F)(F)C(F)(F)C(F)(F)C(F)(F)C(F)(F)C(F)(F)Br', 'astro', 'inactive'),
  ('CCN(CC)CCOc1ccccc1C(=O)CCc1ccccc1', 'astro', 'inactive'),
  ('CC(C)(C)NCC(O)COc1cccc2c1C[C@H](O)[C@H](O)C2 (some centres undefined)', 'astro', 'inactive'),
  ('Cc1ccc(-c2ncc(Cl)cc2-c2ccc(S(C)(=O)=O)cc2)cn1', 'astro', 'inactive'),
  ('NCc1ccccc1Sc1ccccc1CO', 'astro', 'inactive'),
  ('O=S(=O)(O)c1ccc(O)cc1', 'astro', 'inactive'),
  ('CCCCCCCCCCCCOCCOCCOCCOCCOCCOCCOCCOCCOCCO', 'astro', 'active');

###

# Tested on: astro (control astrocytes)
# experimental protocol: Drug repurposing screens with cells derived from glioblastoma tumor samples (AID 1345199); also: nearly all actives have a fitted effect of over 40% in size
# condition set: viability, ATP luminescence, 48 h; series mostly up to 45.9 µM
Records with an inconclusive call do not appear. Calls of active or inactive are those of the source. Calls follow the shape of the dose curve; as a rule, active = well fitted inhibition curve with a large enough effect; inconclusive = small, poorly fitted or top-dose-only effect; inactive = flat fitted curve, though single readings scatter.
Classes used: active, inactive

INSERT INTO assay_data (compound, cat) VALUES
  ('C[N+]12CCC(CC1)C(OC(=O)C(O)(c1ccccc1)c1ccccc1)C2 (configuration not stated)', 'inactive'),
  ('CN(C)CCOC(=O)C(c1ccccc1)C1(O)CCCC1 (configuration not stated)', 'inactive'),
  ('Cc1ccc(O)c([C@H](CCN(C(C)C)C(C)C)c2ccccc2)c1', 'inactive'),
  ('O=C(NC1CCN(CCc2c[nH]c3ccccc23)CC1)c1ccccc1', 'inactive'),
  ('COc1ccc(C(=O)c2ccccc2)c(O)c1', 'inactive'),
  ('Oc1c(Cl)cc(Cl)c(Cl)c1Cc1c(O)c(Cl)cc(Cl)c1Cl', 'active'),
  ('Cc1cc(-c2ccccc2)nnc1NCCN1CCOCC1', 'inactive'),
  ('CN(Cc1ccc(C(C)(C)C)cc1)Cc1cccc2ccccc12', 'inactive'),
  ('OCc1ccccn1', 'inactive'),
  ('Cc1c(-c2ccccc2)oc2c(C(=O)OCCN3CCCCC3)cccc2c1=O', 'inactive'),
  ('N[C@H](C(=O)O)[C@@H](O)c1ccc(O)c(O)c1', 'inactive'),
  ('CC(C)[C@@H]1CC[C@@H](C)CC1=O', 'inactive');
